Source listed as patent US5972961A.

# Tested on: cloned mammalian (mSlo or hSlo) BK channels
# assay.info: BK-mediated outward current in Xenopus oocytes, two-electrode voltage clamp
# Type: cell-based
# measurement.context: at 20 μM; expressed as percent increase over BK current in controls; IBTX-sensitive current; at least 5 oocytes
# Procedure: The ability of compounds described in the present invention to open BK channels and increase whole-cell outward (K^+) BK-mediated currents was assessed under voltage-clamp conditions by determining their ability to increase cloned mammalian (mSlo or hSlo) BK-mediated outward current heterologously expressed in Xenopus oocytes [Butler, A., et al., Science, 261: 221-224 (1993); and Dworetzky, S. I., et al., Mol. Brain Res., 27: 189-193 (1994)]. […]
experimental.readout: BK Current

1) Nc1c(-c2cc(Cl)ccc2O)c2cc(Cl)c(C(F)(F)F)cc2[nH]c1=O ... + (+ = 100-150%)
2) O=c1[nH]c2ccc(C(F)(F)F)cc2c(-c2cc(Cl)ccc2O)c1NS(=O)(=O)c1ccc([N+](=O)[O-])cc1 ... ++ (++ = > 150%)
3) O=c1[nH]c2ccc(C(F)(F)F)cc2c(-c2cc(Cl)ccc2O)c1NS(=O)(=O)c1ccc(F)cc1 ... ++ (++ = > 150%)
4) O=C(Nc1c(-c2cc(Cl)ccc2O)c2cc(C(F)(F)F)ccc2[nH]c1=O)c1ccc(O)cc1 ... + (+ = 100-150%)
5) Nc1c(-c2cc(Cl)ccc2O)c2cc(C(F)(F)F)ccc2[nH]c1=O ... ++ (++ = > 150%)
6) Nc1c(-c2cc(Cl)ccc2O)c2ccccc2[nH]c1=O ... + (+ = 100-150%)
7) Nc1c(-c2cc(Cl)ccc2O)c2cc([N+](=O)[O-])ccc2[nH]c1=O ... ++ (++ = > 150%)
8) O=c1[nH]c2ccc(C(F)(F)F)cc2c(-c2cc(Cl)ccc2O)c1NS(=O)(=O)C(F)(F)F ... ++ (++ = > 150%)
